All figures here come from the RNAGym collection of RNA variant scans (doi:10.1073/pnas.2313332121).

B1: TPR t1 (parent)
chain: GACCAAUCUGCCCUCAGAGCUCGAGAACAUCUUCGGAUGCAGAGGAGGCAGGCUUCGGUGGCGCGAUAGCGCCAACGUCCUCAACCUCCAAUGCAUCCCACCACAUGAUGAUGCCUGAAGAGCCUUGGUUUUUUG

- Variants of: B1
- method.notes: polymerase ribozyme fitness, log enrichment relative to wild type (log ratio); higher = more active; in vitro selection for triplet polymerase activity
Record Criterion met whenever polymerase ribozyme fitness (log ratio) is at -2 or higher; record Criterion not met when lower.

Use the examples below as a reference point.
G58C C115G C123A G135A: Criterion not met
C70U U130A: Criterion met
G36C G128C: Criterion not met

Task: Has G110U G135U a recorded polymerase ribozyme fitness (log ratio) greater than or equal to -2?
Result: Criterion not met

Task: Has C8A U9G A16G A24G G39C G60A C64A U92C G110U G113U A121U C123G U126G a recorded polymerase ribozyme fitness (log ratio) greater than or equal to -2?
Result: Criterion not met
